All values here come from PubChem BioAssay AID2314.

# experimental protocol: Cycloheximide Counterscreen for Small Molecule Inhibitors of Shiga Toxin; also: read at 38.3 µM for the half of the compounds with a filed dose; 0% is about no effect
# test context: cell reporter, cycloheximide protein synthesis inhibition counterscreen; active compounds read high
About 37,000 (12%) of roughly 300,000 compounds were called active. This excerpt belongs to a sample that is enriched for actives.
I'd be grateful if you could share measured max response for these entries.
Give the value in % but do not write % after it.

Would you mind telling me what max response value was observed for O=C(CSc1nc2ccccc2o1)N1CCN(c2ccc(Cl)cc2)CC1 ? 3.68

Given the entry CC(C)N(C(=O)c1ccc(-c2ccccc2F)cc1)C(C)C , report its measured max response. -2.02

# max response lookup, item Cc1cccc(NC(=S)N2CCC(c3nc4ccccc4s3)CC2)c1 -8.19

For the compound shown here, CCCCCC(=O)Nc1ccc(S(=O)(=O)Nc2ccc(Cl)nn2)cc1 , give the reported max response. 5.65

I am curious: what max response value has been reported for CCN(Cc1ccccc1)C(=O)CCS(=O)(=O)c1ccc2c(c1)oc(=O)n2C ? 0.913

// max response lookup, key: CSc1ccccc1N1CCN(CCCCCC(=O)NC2CCCc3ccccc32)CC1 (stereo not drawn) -7.34

Please give the measured max response for this compound: Cc1cccc(-c2nc(CS(=O)CC(=O)NC(C)CCc3ccccc3)c(C)o2)c1 (stereo not drawn) -0.794

Can you look up the measured max response of Cc1cc(=O)[nH]c(SCC(=O)N2c3ccccc3CC2C)n1 (stereo not drawn) for me? 1.01

# lookup: max response of CC(=O)Nc1ccc(S(=O)(=O)Nc2cccc(NC(=O)C(C)(C)C)c2)cc1 4.2

# input compound: COc1cc(C(C)=O)ccc1OC(=O)CN1C(=O)c2ccccc2C1=O ; wanted: its max response -2.6

For the compound shown here, CCN(CC)C(=O)CSc1nnc(-c2ccc(S(=O)(=O)NCc3ccccc3Cl)cc2)o1 , give the reported max response. -0.581

Entry COc1ccc(CCn2c(-c3ccco3)nc3nc4ccccc4nc32)cc1OC has what max response? 7.86

Entry under review: CCCCCC(=O)Nc1ccc(-c2cn3cccnc3n2)cc1 . Reported max response? 25.3

Data request, read-out max response, for Cc1nc2ccc(NC(=S)N3CCC(C)CC3)cc2nc1C 29.7

Could you tell me which max response is on file for CC(=O)Nc1ccc(OCC(=O)NCc2ccc(C)cc2)cc1 ? 7.82

Requested read-out: max response. Entry: CC(=O)Nc1ccc(S(=O)(=O)Nc2nc(-c3ccc(C(C)(C)C)cc3)cs2)cc1 -0.918

Give its max response value. Item: COc1ccc2cc(-c3[nH]ncc3CNCCn3nc(C)cc3C)ccc2c1 38.8

Which max response value belongs to COc1ccc(CN2CCNC(=O)C2CC(=O)NCc2cn[nH]c2-c2ccccc2)c(F)c1 (stereo not drawn) ? -3.59

What value of max response has been recorded for this entry: CC(C)(C)Nc1nc(-c2ccccn2)nc2ccccc12 -2.46

# query: max response of entry COc1ccc(-c2cc(=O)oc3cc(OC(C)C(=O)NCC4CCC(C(=O)O)CC4)ccc23)cc1 (stereo not drawn) -2.31

Which max response is listed for CCCC(=O)Nc1nnc(-c2ccccc2)o1 ? -3.55

Which max response value is on record for O=C(Nc1ccc(N2CCOCC2)c(Cl)c1)c1ccc(S(=O)(=O)N2CCOCC2)cc1 ? 5.48

Bench note: what max response did Cc1ccc(NC(=O)CN2CCC3(O)CCCCC3C2c2ccc3c(c2)OCO3)c(C)c1 (stereo not drawn) show? -2.23

Returns the measured max response for the input compound. Input: Cc1cccc2c1-c1sc(C(=O)NCCCN3CCc4ccccc4C3)cc1CO2 1.19

Which max response value belongs to COCCCNC(=O)CNC(=O)c1nn(-c2ccc(OC)cc2)c(=O)c2ccccc12 ? -1.37

State the recorded max response for this entry: Cc1cccc(C(=O)c2cccc(C)c2)c1 0.416

Entry CSCCC(NS(=O)(=O)c1ccc(C)cc1)C(=O)NCCc1c[nH]c2ccccc12 (stereo not drawn) : reported max response = ? -3.49

Given CSc1ccc(CCNC(=O)CS(=O)(=O)Cc2nc(-c3ccccc3F)oc2C)cc1 , state its recorded max response. -3.5

Could you share which max response value was measured for CC(C)Oc1ccccc1C(=O)NC(CO)C(=O)O (stereo not drawn) ? 5.75

Consider the compound CCCCC(=O)Nc1ccc(C(=O)NCCCn2ccnc2)cc1 and give its measured max response. 3.08

Record request: max response value, item C=CCC1(C#N)C(=S)NC(C)=C(C(=O)OCC)C1c1ccccc1 (stereo not drawn) -1.77

Query: max response; subject: CCOc1cc(-c2cc(-c3ccc(NC(C)=O)cc3)nc(N)c2C#N)ccc1O -3.59

Any idea what its max response is? The compound is O=C(Nc1ccccc1C(=O)N1CCCCC1)c1ccco1 -0.706

Quick one: max response of Cc1cc(C)cc(N(CCC#N)C(=O)CN2C(=O)NC3(CCCC3)C2=O)c1 ? 1.6

I would be grateful if you could share the reported max response for CCN(C(=O)COc1ccc(C(=O)c2ccccc2)cc1)c1ccccc1 . 8.19

GET /values?readout=max response&item= COc1cccc(C(=O)OCc2cc(=O)oc3c(C)c(C)ccc23)c1OC -3.37

Fill blank: measured max response of the compound CC1CCN(C(=O)CN(c2ccc(Oc3ccccc3)cc2)S(C)(=O)=O)CC1 is ____. 0.761

Which value of max response has been reported for O=C(C1CCN(Cc2ccc(Cl)cc2)CC1)N1CCN(Cc2ccc3c(c2)OCO3)CC1 in the records? -1.07
